- subjectOfTest: MAPKAPK2 (MK-2) (Homo sapiens, UniProt P49137)
- Sequence (P49137 whole entry, species assumed): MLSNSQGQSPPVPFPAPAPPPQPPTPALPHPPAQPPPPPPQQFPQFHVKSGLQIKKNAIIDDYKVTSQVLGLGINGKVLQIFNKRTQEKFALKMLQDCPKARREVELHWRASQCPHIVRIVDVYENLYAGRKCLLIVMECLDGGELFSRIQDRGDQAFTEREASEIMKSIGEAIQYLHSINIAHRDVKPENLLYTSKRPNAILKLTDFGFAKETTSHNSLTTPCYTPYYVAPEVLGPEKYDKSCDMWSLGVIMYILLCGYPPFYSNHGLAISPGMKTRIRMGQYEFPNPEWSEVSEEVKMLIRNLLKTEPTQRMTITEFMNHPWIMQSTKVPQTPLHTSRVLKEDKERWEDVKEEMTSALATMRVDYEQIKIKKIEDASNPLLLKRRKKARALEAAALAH
- experimentalProtocol: Determination of MK-2 IC50 (HSP-peptide phosphorylation, anion exchange resin capture assay)
- Format: biochemical
- conditionParameters: read-out: MK-2 Avg. IC50
pIC50: −log10 of the molar value.
propertyLabel: pIC50

Sample answers from the record:
> print(dat)
                                   compound                             subjectoftest  propertylabel  value
1           NCCn1nc2c(c1C(=O)O)CCc1cnccc1-2  MAPKAPK2 (MK-2) (Homo sapiens, UniProt P49137)          pIC50   6.15
2  CN1CCN(c2cc3c(cn2)CCc2c-3nn3c2C(=O)NCC3)CC1  MAPKAPK2 (MK-2) (Homo sapiens, UniProt P49137)          pIC50   4.01
3  O=C1NCCn2nc3c(c21)CCc1cnc(/C=C/c2ccccc2)cc1-3  MAPKAPK2 (MK-2) (Homo sapiens, UniProt P49137)          pIC50   6.68
4  O=C(O)c1c2c(nn1CCCNCCc1ccc(Cl)cc1Cl)-c1ccncc1CC2  MAPKAPK2 (MK-2) (Homo sapiens, UniProt P49137)          pIC50   6.46
5  O=C1NC(CO)Cn2nc3c(c21)CCc1cnccc1-3 (centres unmarked)  MAPKAPK2 (MK-2) (Homo sapiens, UniProt P49137)          pIC50   6.08
6  O=C1NCCn2nc3c(c21)CCc1cnc(-c2cccc4cccnc24)cc1-3  MAPKAPK2 (MK-2) (Homo sapiens, UniProt P49137)          pIC50   4.85
7  COc1ccc(-c2cc3c(cn2)CCc2c-3nn3c2C(=O)NCCC3)cc1OC  MAPKAPK2 (MK-2) (Homo sapiens, UniProt P49137)          pIC50   6.54
8  CS(=O)(=O)c1ccc(CCCNCCCn2nc3c(c2C(=O)O)CCc2cnccc2-3)cc1  MAPKAPK2 (MK-2) (Homo sapiens, UniProt P49137)          pIC50   6.21

[P] NCCCn1nc2c(c1C(=O)NO)CCc1cnc(-c3cnc4ccccc4c3)cc1-2
[Q] O=C(O)c1c2c(nn1CCCNCCc1ccc(Cl)cc1)-c1ccncc1CC2
[R] O=C1NCCn2nc3c(c21)CCc1cnc(N2CCC(O)CC2)cc1-3
[S] COc1ccc(CCNCCCn2nc3c(c2C(=O)O)CCc2cnccc2-3)cc1OC
Endpoint returns the given compounds ordered by ascending pIC50. State the ranking by listing the labels in the requested order.
R, S, Q, P

[a] O=C(O)c1c2c(nn1CCCNCCc1ccc(Cl)c(Cl)c1)-c1ccncc1CC2
[b] O=C(O)c1c2c(nn1CCCNCCCc1ccc(Cl)cc1)-c1ccncc1CC2
[c] NCCCn1nc2c(c1C(=O)O)CCc1cnc(-c3ccc4ccccc4c3)cc1-2
Endpoint returns the given compounds ordered by ascending pIC50. State the ranking by listing the labels in the requested order.
b, a, c

[a] O=C(O)c1c2c(nn1CCCNCCc1ccc(-c3cccc(Cl)c3)cc1)-c1ccncc1CC2
[b] Cc1ccc(C(C)CCNCCCn2nc3c(c2C(=O)O)CCc2cnccc2-3)o1 (centres unmarked)
Kindly identify which of a and b has the larger recorded pIC50 value. Mark your selection by writing its label.
a
